- measurement target: Recombinant ROCK1 (Homo sapiens (Human), UniProt Q13464)
- Sequence (Q13464 whole entry): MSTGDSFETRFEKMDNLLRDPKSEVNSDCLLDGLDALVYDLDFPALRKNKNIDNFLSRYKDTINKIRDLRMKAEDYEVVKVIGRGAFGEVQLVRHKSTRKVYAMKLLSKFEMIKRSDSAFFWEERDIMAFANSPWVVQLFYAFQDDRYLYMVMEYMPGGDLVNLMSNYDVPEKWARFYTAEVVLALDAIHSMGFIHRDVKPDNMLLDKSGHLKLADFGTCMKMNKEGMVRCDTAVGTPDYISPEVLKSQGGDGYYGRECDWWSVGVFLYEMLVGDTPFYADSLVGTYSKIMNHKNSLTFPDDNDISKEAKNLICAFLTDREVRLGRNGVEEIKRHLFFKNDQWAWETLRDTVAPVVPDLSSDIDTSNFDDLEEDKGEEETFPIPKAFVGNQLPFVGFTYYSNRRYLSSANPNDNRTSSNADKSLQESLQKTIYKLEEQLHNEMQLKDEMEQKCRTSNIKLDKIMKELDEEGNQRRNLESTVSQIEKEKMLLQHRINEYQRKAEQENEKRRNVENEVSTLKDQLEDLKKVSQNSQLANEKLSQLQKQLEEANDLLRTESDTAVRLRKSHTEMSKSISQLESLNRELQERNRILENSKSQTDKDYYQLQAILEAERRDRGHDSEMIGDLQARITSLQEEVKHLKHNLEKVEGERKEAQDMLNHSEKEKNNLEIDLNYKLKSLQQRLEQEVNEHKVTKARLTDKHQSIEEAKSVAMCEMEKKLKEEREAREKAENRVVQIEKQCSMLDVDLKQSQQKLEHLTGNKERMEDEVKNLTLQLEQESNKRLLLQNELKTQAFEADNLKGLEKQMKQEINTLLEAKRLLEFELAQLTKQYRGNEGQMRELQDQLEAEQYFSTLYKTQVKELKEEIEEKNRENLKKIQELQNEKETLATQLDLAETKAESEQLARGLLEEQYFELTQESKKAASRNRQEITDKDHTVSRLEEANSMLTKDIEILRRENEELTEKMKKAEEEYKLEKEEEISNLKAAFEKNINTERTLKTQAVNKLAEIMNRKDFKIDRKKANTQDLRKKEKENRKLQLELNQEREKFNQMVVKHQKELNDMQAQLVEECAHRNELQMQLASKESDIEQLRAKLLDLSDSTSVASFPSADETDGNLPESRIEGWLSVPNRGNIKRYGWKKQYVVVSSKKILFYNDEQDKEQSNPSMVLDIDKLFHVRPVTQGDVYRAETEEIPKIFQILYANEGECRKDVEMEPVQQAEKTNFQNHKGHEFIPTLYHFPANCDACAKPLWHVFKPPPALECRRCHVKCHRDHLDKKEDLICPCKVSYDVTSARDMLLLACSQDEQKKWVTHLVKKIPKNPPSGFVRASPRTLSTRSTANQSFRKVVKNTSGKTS
- assay notes: Lance Ultra Kinase Assay, ROCK1 inhibition
- condition context: ATP at Km, 30 min pre-incubation, 1 h reaction
pIC50: −log10 of the molar value.
Quick rule for you: pIC50 at 9 or higher means yes (1), lower means no (0).

| compound | class |
| --- | --- |
| CN1CCN(C[C@@H](C(=O)Nc2cccc3c(-c4cn[nH]c4)c[nH]c23)c2ccccc2)CC1 [Example 40] | yes (1) |
| N[C@@H](Cc1c[nH]cn1)C(=O)Nc1cccc2c(-c3cn[nH]c3)c[nH]c12 [Example 108] | no (0) |
| N#Cc1ccc(C(CN)C(=O)Nc2cccc3c(-c4cn[nH]c4)c[nH]c23)cc1 (racemic) [Example 86] | no (0) |
| N[C@@H](C(=O)Nc1cccc2c(-c3cn[nH]c3)c[nH]c12)c1ccccc1 [Example 8] | no (0) |
| COc1ccc(C(N)C(=O)Nc2cccc3c(-c4cn[nH]c4)c[nH]c23)cc1 (racemic) [Example 104] | no (0) |
| Cc1cncc(C(CN)C(=O)Nc2cccc3c(-c4cn[nH]c4)c[nH]c23)c1 (single isomer, unassigned) [Example 62] | no (0) |

----------
- measurement target: Recombinant ROCK2 (Homo sapiens (Human))
- assay notes: Lance Ultra Kinase Assay, ROCK2 inhibition
- condition context: ATP at Km, 30 min pre-incubation, 1 h reaction
pIC50: −log10 of the molar value.
pIC50 vs 8: at or above is t, below is f.

| molecule | class |
| --- | --- |
| NCC(C(=O)Nc1cccc2c(-c3cn[nH]c3)c[nH]c12)c1cccc(C(=O)O)c1 (racemic) | t |
| NCC(C(=O)Nc1cccc2c(-c3cn[nH]c3)c[nH]c12)c1cccnc1 (single isomer, unassigned) [Example 33] | f |
| CN1CCN(CC(C(=O)Nc2cccc3c(-c4cn[nH]c4)c[nH]c23)c2cccnc2)CC1 (single isomer, unassigned) [Example 66] | f |
| COc1cc(OC)cc(C(N)C(=O)Nc2cccc3c(-c4cn[nH]c4)c[nH]c23)c1 (racemic) | t |
| COc1cncc(C(CN2CCN(C)CC2)C(=O)Nc2cccc3c(-c4cn[nH]c4)c[nH]c23)c1 (single isomer, unassigned) [Example 111] | f |
| N#Cc1cccc([C@@H](N)C(=O)Nc2cccc3c(-c4cn[nH]c4)c[nH]c23)c1 (single isomer, unassigned) | t |
| NCC(C(=O)Nc1cccc2c(-c3cn[nH]c3)c[nH]c12)c1ccc(F)cc1 (racemic) | t |
| CN1CCN(CC(C(=O)Nc2cccc3c(-c4cn[nH]c4)c[nH]c23)c2ccccc2)CC1 (single isomer, unassigned) [Example 39] | f |
| COc1cccc([C@@H](N)C(=O)Nc2cccc3c(-c4cn[nH]c4)c[nH]c23)c1 | t |
| O=C(Nc1cccc2c(-c3cn[nH]c3)c[nH]c12)C1CNCc2ccccc21 (racemic) | f |
| NC[C@@H](NC(=O)c1cccc2c(-c3cn[nH]c3)n[nH]c12)c1ccccc1 | t |
| NCCN1CCN(C(C(=O)Nc2cccc3c(-c4cn[nH]c4)c[nH]c23)c2ccccc2)CC1 (racemic) | t |
| CNC(=O)OCc1cccc(C(CN)C(=O)Nc2cccc3c(-c4cn[nH]c4)c[nH]c23)c1 (racemic) [Example 49] | t |
| Cc1cccc(C(CN)C(=O)Nc2cccc3c(-c4cn[nH]c4)c[nH]c23)c1 (racemic) | t |
| NCC(C(=O)Nc1cccc2c(-c3cn[nH]c3)c[nH]c12)c1ccc(C(N)=O)cc1 (single isomer, unassigned) [Example 113] | f |
| Cc1ccc(C(=O)OCc2ccc(C(CN)C(=O)Nc3cccc4c(-c5cn[nH]c5)c[nH]c34)cc2)c(C)c1 (single isomer, unassigned) [Example 6] | f |
| NC[C@@H](Cc1ccccc1)C(=O)Nc1cccc2c(-c3cn[nH]c3)c[nH]c12 | t |
| N#Cc1ccc(C(CN)C(=O)Nc2cccc3c(-c4cn[nH]c4)c[nH]c23)cc1 (racemic) [Example 86] | t |
| NCC(C(=O)Nc1cccc2c(-c3cn[nH]c3)c[nH]c12)c1ccccn1 (racemic) | t |
| CNC(=O)c1ccc(C(CN)C(=O)Nc2cccc3c(-c4cn[nH]c4)c[nH]c23)cc1 (racemic) | f |
| N#Cc1cccc(C(CN)C(=O)Nc2cccc3c(-c4cn[nH]c4)c[nH]c23)c1 (single isomer, unassigned) [Example 21] | f |
| Cc1cncc(C(CN)C(=O)Nc2cccc3c(-c4cn[nH]c4)c[nH]c23)c1 (single isomer, unassigned) [Example 62] | f |
| NCCC(NC(=O)c1cccc2c(-c3cn[nH]c3)c[nH]c12)c1ccccc1 (racemic) | t |
| NCC(C(=O)Nc1cccc2c(-c3cn[nH]c3)c[nH]c12)c1cccc(N)c1 (racemic) | t |
| COc1cccc(C(CN)C(=O)Nc2cccc3c(-c4cn[nH]c4)c[nH]c23)c1 (single isomer, unassigned) [Example 18] | t |

----------
- measurement target: Recombinant ROCK2 (Homo sapiens (Human))
- assay notes: Lance Ultra Kinase Assay, ROCK2 inhibition
- condition context: ATP at Km, 30 min pre-incubation, 1 h reaction
IC50: recorded values

| molecule | IC50 |
| --- | --- |
| CP(C)(=O)c1cccc(C(CN)NC(=O)c2cccc3c(-c4cn[nH]c4)c[nH]c23)c1 (racemic) | 71000 pM |
| CN1CCN(CC(C(=O)Nc2cccc3c(-c4cn[nH]c4)c[nH]c23)c2ccccc2)CC1 (racemic) [Example 37] | 430 pM |
| NCC(C(=O)Nc1cccc2c(-c3cn[nH]c3)c[nH]c12)C1CCCOC1 (stereo not shown) | 750 pM |
| CN1CCN(CC(C(=O)Nc2cccc3c(-c4cn[nH]c4)c[nH]c23)c2ccccc2)CC1 (single isomer, unassigned) [Example 38] | 260 pM |

----------
- measurement target: Recombinant ROCK2 (Homo sapiens (Human))
- assay notes: Lance Ultra Kinase Assay, ROCK2 inhibition
- condition context: ATP at Km, 30 min pre-incubation, 1 h reaction
pIC50: −log10 of the molar value.
Examples of molecules with documented pIC50 follow.

| molecule | pIC50 |
| --- | --- |
| COc1ccc(C(CN)NC(=O)c2cccc3c(-c4cn[nH]c4)c[nH]c23)cc1 (single isomer, unassigned) [Example 144] | 7.49 |
| NCC(C(=O)Nc1cccc2c(-c3cn[nH]c3)c[nH]c12)c1ccc(CO)cc1 (racemic) [Example 1] | 9.57 |
| NCC(C(=O)Nc1cccc2c(-c3cn[nH]c3)c[nH]c12)c1cccc(Cl)c1 (racemic) | 9.18 |
| COc1cccc(C(CN2CCN(C)CC2)NC(=O)c2cccc3c(-c4cn[nH]c4)c[nH]c23)c1 (single isomer, unassigned) [Example 138] | 7.64 |

----------
IC50 reference
- measurement target: Recombinant ROCK2 (Homo sapiens (Human), UniProt O75116)
- Sequence (O75116 whole entry): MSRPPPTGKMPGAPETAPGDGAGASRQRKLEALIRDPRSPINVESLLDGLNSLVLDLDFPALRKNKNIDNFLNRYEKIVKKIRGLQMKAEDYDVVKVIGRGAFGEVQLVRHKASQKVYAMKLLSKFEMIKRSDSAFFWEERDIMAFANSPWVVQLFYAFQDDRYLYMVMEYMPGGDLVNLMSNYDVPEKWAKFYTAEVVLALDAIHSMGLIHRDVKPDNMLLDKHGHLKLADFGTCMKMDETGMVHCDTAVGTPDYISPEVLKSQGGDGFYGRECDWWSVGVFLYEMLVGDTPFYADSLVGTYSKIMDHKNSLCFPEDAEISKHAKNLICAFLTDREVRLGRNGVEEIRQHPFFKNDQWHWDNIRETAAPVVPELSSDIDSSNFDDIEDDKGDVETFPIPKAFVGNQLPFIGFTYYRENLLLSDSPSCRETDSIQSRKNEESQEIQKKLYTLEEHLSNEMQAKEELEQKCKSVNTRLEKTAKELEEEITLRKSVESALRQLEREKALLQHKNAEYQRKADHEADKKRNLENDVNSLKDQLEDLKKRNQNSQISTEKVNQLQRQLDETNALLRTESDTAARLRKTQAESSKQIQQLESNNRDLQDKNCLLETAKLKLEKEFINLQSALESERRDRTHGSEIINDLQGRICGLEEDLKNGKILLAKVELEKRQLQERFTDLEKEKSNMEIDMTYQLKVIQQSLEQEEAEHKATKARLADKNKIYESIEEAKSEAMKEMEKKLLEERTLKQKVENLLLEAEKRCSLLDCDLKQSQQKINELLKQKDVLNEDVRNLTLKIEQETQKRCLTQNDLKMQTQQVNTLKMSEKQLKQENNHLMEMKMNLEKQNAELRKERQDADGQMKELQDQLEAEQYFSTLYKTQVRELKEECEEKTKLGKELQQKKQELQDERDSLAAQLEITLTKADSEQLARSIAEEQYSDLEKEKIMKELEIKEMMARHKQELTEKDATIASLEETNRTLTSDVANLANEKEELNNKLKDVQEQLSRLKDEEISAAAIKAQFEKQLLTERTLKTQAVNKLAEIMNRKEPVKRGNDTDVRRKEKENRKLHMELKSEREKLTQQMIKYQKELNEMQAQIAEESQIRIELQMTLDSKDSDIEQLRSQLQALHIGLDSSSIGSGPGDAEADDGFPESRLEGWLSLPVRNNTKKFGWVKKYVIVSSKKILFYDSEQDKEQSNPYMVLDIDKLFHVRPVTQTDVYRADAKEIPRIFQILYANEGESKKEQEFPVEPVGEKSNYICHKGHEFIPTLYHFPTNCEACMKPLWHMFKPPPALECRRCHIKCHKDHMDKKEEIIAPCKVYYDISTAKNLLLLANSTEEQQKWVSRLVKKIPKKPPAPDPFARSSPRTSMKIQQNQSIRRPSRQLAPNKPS
- assay notes: Lance Ultra Kinase Assay, ROCK2 inhibition
- condition context: ATP at Km, 30 min pre-incubation, 1 h reaction
property label: IC50 (nM)

| compound | readout value |
| --- | --- |
| CP(C)(=O)c1ccc(C(CN)C(=O)Nc2cccc3c(-c4cn[nH]c4)c[nH]c23)cc1 (racemic) | 28 |
| NCC(C(=O)Nc1cccc2c(-c3cn[nH]c3)c[nH]c12)c1ccc(O)cc1 (racemic) | 1.7 |
| NCC(C(=O)Nc1cccc2c(-c3cn[nH]c3)c[nH]c12)c1cccc(O)c1 (single isomer, unassigned) [Example 65] | 2.5 |
| CNC(=O)OCc1cccc(C(CN)C(=O)Nc2cccc3c(-c4cn[nH]c4)c[nH]c23)c1 (single isomer, unassigned) [Example 50] | 0.22 |
| COc1cccc(C(CN2CCN(C)CC2)NC(=O)c2cccc3c(-c4cn[nH]c4)c[nH]c23)c1 (single isomer, unassigned) [Example 137] | 65 |

----------
- Tested on: pMLC2
- assay notes: Cellular PD assay, pMLC2 in PASMC (western blot)
- Type: cell-based
- condition context: PASMC, 0.5 h; Human Pulmonary Artery Smooth Muscle Cells, 30 min incubation
Below, each entry is listed with its recorded log10(IC50).
property label: log10(IC50) (log10 of the value in nM)

| molecule | log10(IC50) |
| --- | --- |
| COc1cccc(C(CN)C(=O)Nc2ncnc3c(-c4cn[nH]c4)c[nH]c23)c1 (stereo not drawn) | 0.92 |
| N#Cc1cccc(C(CN)C(=O)Nc2cccc3c(-c4cn[nH]c4)c[nH]c23)c1 (single isomer, unassigned) | 1.58 |
| N#Cc1ccc(C(CN)C(=O)Nc2cccc3c(-c4cn[nH]c4)c[nH]c23)cc1 (single isomer, unassigned) | 1.79 |
| CN1CCC(C(C(=O)Nc2cccc3c(-c4cn[nH]c4)c[nH]c23)c2ccccc2)CC1 (racemic) [Example 43] | 2.01 |
| CN1CCN(CC(C(=O)Nc2cccc3c(-c4cn[nH]c4)c[nH]c23)c2ccccc2)CC1 (single isomer, unassigned) [Example 38] | 0.91 |
| N[C@H](C(=O)Nc1cccc2c(-c3cn[nH]c3)c[nH]c12)c1ccccc1 | 1.18 |
| COc1cccc(C(CN)C(=O)Nc2cccc3c(-c4cn[nH]c4)c[nH]c23)c1 (single isomer, unassigned) | 0.62 |
| CN1CCN(CC(C(=O)Nc2cccc3c(-c4cn[nH]c4)c[nH]c23)c2ccccc2)CC1 (racemic) [Example 37] | 0.90 |
| NCC(C(=O)Nc1cccc2c(-c3cn[nH]c3)c[nH]c12)C1CCOCC1 (single isomer, unassigned) | 1.93 |
| NC(C(=O)Nc1cccc2c(-c3cn[nH]c3)c[nH]c12)c1ccccc1 (racemic) | 1.11 |
| CN1CCC(C(C(=O)Nc2cccc3c(-c4cn[nH]c4)c[nH]c23)c2ccccc2)CC1 (single isomer, unassigned) [Example 45] | 1.46 |
| NCC(C(=O)Nc1cccc2c(-c3cn[nH]c3)c[nH]c12)C1CCCCC1 (racemic) [Example 22] | 1.11 |
| NCC(C(=O)Nc1cccc2c(-c3cn[nH]c3)c[nH]c12)c1ccc(CO)cc1 (single isomer, unassigned) | 1.66 |
| NCCN1CCN(C(C(=O)Nc2cccc3c(-c4cn[nH]c4)c[nH]c23)c2ccccc2)CC1 (racemic) | 1.98 |
| NCC(C(=O)Nc1cccc2c(-c3cn[nH]c3)c[nH]c12)C1CCCCC1 (single isomer, unassigned) [Example 23] | 0.54 |
